# credit: patent US9920373B2

- Test system: SW48 KRas-G12V cells
- EXPERIMENT: […]-GLO Luminescent Cell Viability Assay, SW48 KRas-G12V
- Assay type: cell-based
- CONDITION DETAILS: Homo sapiens, 72 hrs of treatment, read-out: EC50 (in vitro sensitivity, cell viability)
ENDPOINT LABEL: EC50 (nM)
Note: unit nM is implicit; provide only the numeric part.

input: Need EC50, item `CC(C)C[C@H](NC(=O)CNC(=O)c1cc(Cl)ccc1Cl)B(O)O`
output: 20

* * *

- Test system: SW48 cells (KRas WT)
- EXPERIMENT: […]-GLO Luminescent Cell Viability Assay, SW48 wt
- Format: cell-based
- CONDITION DETAILS: Homo sapiens, 72 hrs of treatment, read-out: EC50 (in vitro sensitivity, cell viability)
ENDPOINT LABEL: EC50 (nM)
Could you give me the number in nM? Just the number is fine.

input: Query: EC50; subject: `CC(C)C[C@H](NC(=O)CNC(=O)c1cc(Cl)ccc1Cl)B(O)O`
output: 33
